Hey, just so you know, these numbers are from ChEMBL document CHEMBL3232820.

# System: Liver
# TEST_NAME: Metabolic stability in CD1 mouse liver microsomes assessed as compound remaining at 1 uM after 15 mins by HPLC-MS analysis in presence of NADPH
# Type: ADME
# CONDITIONS: 0.25 h
QUANTITY_MEASURED: Stability (%)
Give the value, in units of %, as a plain number.

Consider the reported Stability for these compounds:
COMPOUND	SYSTEM_TESTED	Stability (%)
CC[C@H](C)[C@H]1C(=O)N2CCC[C@H]2C(=O)O[C@H](C(C)(C)C)C[C@@H](C)C[C@H](O)[C@H](C)C2=N[C@H](CCC(=O)N[C@@H](Cc3ccc(OC)cc3)C(=O)N(C)[C@@H](C)C(=O)N1C)CS2	Liver	3.55
CC[C@H](C)[C@H]1C(=O)N2CCC[C@H]2C(=O)O[C@H](C(C)(C)C)C[C@@H](C)C[C@H](O)CC2=N[C@@H](CCC(=O)N[C@@H](Cc3ccc(OC)cc3)C(=O)N(C)[C@@H](C)C(=O)N1C)CS2	Liver	52.4

Q) // Input: CC[C@H](C)[C@H]1C(=O)N2CCC[C@H]2C(=O)O[C@H](C(C)(C)C)C[C@@H](C)C[C@H](O)[C@H](C)C2=N[C@@H](CCC(=O)N[C@@H](Cc3ccc(OC)cc3)C(=O)N(C)[C@@H](C)C(=O)N1C)CS2 [APRATOXIN S4] . Output its Stability only.
A) 10.07

Q) Retrieve Stability measured for "CC[C@H](C)[C@H]1C(=O)N2CCC[C@H]2C(=O)O[C@H](C(C)(C)C)C[C@@H](C)C[C@H](O)C(C)(C)C2=N[C@@H](CCC(=O)N[C@@H](Cc3ccc(OC)cc3)C(=O)N(C)[C@@H](C)C(=O)N1C)CS2" and print it.
A) 8.28
